Measured fold difference in affinity vs original by item
# test-target: T1, IL-1β (UniProt P01584 117-269)
# T1 construct: Antigen immobilised on the Biacore chip
# procedure-summary: Biacore, periplasmic extract
# value in fold; strip the unit string

Below: 2 binders and their reported fold difference in affinity vs original.
binder	parameter	value-measured
XPA23 light chain D92F (Fab, V domains shown) VH: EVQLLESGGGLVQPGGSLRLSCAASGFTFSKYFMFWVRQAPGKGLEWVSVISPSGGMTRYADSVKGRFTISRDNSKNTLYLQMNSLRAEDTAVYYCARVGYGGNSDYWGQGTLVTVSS VL: DIQMTQSPSSVSASVGDRLTIICRASQDINRWLAWYQQTPGNAPKLLIHSATSLQSGVPSRFSGSGSGTDFTLTINSLQPEDFATYYCQQAFSFPLTFGGGTKVEIK	fold difference in affinity vs original	0.26
XPA23 light chain N30P (Fab, V domains shown) VH: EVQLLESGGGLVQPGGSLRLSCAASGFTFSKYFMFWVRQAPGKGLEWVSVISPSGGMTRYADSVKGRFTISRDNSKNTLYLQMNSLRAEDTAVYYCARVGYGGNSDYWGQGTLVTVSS VL: DIQMTQSPSSVSASVGDRLTIICRASQDIPRWLAWYQQTPGNAPKLLIHSATSLQSGVPSRFSGSGSGTDFTLTINSLQPEDFATYYCQQADSFPLTFGGGTKVEIK	fold difference in affinity vs original	0.69

Could you now look at the following binder, please?
Query fold difference in affinity vs original for XPA23 light chain H49L (Fab, V domains shown) VH: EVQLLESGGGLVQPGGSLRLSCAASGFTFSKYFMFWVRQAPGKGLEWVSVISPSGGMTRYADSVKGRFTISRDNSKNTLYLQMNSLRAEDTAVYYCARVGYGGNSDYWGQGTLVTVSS VL: DIQMTQSPSSVSASVGDRLTIICRASQDINRWLAWYQQTPGNAPKLLILSATSLQSGVPSRFSGSGSGTDFTLTINSLQPEDFATYYCQQADSFPLTFGGGTKVEIK
0.07

Recorded values, source patent US20110118131A1.
